# test_method_notes: Confirmation and Secondary Assay for Modulators of Hemoglobin Beta Chain Splicing at IVS2 705 locus (AID 930);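 note: HeLa cells stably expressing the EGFP-705 splicing reporter; GFP fluorescence per well restored by corrected splicing of the IVS2-705 intron in EGFP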
# protocol_conditions: HeLa EGFP-705 splicing reporter, GFP fluorescence, 48 h; series mostly up to 46.1 µM
The source made the active and inactive calls. Calls come from the whole dose curve; as a rule, active = well fitted activation curve with a large enough effect; inconclusive = small, poorly fitted or top-dose-only effect; inactive = flat fitted curve, though single readings scatter.
experimental_readout: outcome

Solved entries (count: 4):
1) CCC1C2CC3C4N(C)c5ccccc5[C@]45CC(C2C5O)N3C1O (stereo not given in full)    inactive
2) COc1cc2ccc(=O)oc2c2ccoc12    inactive
3) CC[C@]1(O)CC(O[C@@H]2CC(N(C)C)C(O)C(C)O2)c2c(cc3c(c2O)C(=O)c2c(O)ccc(O)c2C3=O)C1C(=O)OC (stereo not given in full)    inactive
4) COC(=O)[C@]1(C)CC[C@@]2(C)CC[C@@]3(C)C4=CC=C5C(=CC(=O)C(O)=C5C)[C@@]4(C)CC[C@@]3(C)C2C1 (stereo not given in full)    inactive

Incoming: Consider the molecule shown here: CN1Cc2c(ccc3c2OCO3)C2C(O)Cc3cc4c(cc3C21)OCO4 (stereo not given) What is its recorded outcome?
Outgoing: inactive
